biological target: ERK5 (Homo sapiens, UniProt Q13164); construct: made in house; assay: ERK5 IMAP assay (fluorescence polarisation); format: biochemical; settings: average (e.g. geometric mean) where more than one data point; read-out: ERK5 IC50
Sequence (Q13164 whole entry): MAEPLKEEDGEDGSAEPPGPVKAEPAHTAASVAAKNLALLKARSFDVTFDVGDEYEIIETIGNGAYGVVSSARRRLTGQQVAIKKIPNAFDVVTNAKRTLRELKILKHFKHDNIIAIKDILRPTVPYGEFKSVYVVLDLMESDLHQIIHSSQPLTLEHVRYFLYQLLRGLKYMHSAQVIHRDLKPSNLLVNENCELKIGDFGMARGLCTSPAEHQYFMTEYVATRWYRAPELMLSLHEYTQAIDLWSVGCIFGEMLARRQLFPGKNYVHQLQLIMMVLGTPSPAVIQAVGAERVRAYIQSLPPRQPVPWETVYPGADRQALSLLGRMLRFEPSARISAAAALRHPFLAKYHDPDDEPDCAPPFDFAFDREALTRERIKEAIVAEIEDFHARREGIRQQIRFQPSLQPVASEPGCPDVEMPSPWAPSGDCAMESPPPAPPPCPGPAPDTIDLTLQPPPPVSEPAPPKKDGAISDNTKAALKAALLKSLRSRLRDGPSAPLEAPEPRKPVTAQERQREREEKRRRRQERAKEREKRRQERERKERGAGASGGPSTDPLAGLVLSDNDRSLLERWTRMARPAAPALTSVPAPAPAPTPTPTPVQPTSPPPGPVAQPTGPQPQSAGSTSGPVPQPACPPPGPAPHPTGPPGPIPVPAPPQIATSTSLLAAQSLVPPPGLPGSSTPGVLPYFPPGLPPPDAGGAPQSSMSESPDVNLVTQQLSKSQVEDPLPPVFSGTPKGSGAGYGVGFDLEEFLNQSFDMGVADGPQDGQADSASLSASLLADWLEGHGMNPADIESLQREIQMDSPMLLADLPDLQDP
pIC50: −log10 of the molar value.
assay.metric: pIC50

Here's what some known entries look like.
[[record]]
molecule = "O=C(Nc1cccnc1)c1cc(C(=O)c2c(F)ccc(C(=O)O)c2F)c[nH]1"
numeric_value = 5.71

[[record]]
molecule = "CC(=O)OC1CCN(c2ncc(NC(=O)c3cc(C(=O)c4c(F)cccc4Cl)c[nH]3)cn2)CC1"
numeric_value = 5.27


1 = CCc1ncccc1NC(=O)c1cc(C(=O)c2c(F)cccc2Cl)c[nH]1
2 = O=C(Nc1cncnc1)c1cc(C(=O)c2c(F)ccc(Cl)c2Cl)c[nH]1
Query: For 1 and 2 , which recorded pIC50 is lower? Reply briefly: the label of your chosen item.
Reply: 1
(1: 5.80, 2: 6.46)

P = C=C(C)c1ccc(F)c(C(=O)c2c[nH]c(C(=O)Nc3cccnc3)c2)c1F
Q = CCOc1ccc(Cl)c(C(=O)c2c[nH]c(C(=O)Nc3cccnc3)c2)c1F
Query: For P and Q , which recorded pIC50 is lower? Reply briefly: the label of your chosen item.
Reply: P
(P: 5.61, Q: 6.94)

a = COc1ccc(Cl)c(C(=O)c2c[nH]c(C(=O)Nc3ccc(CN4CCOCC4)nc3)c2)c1F
b = CCOc1ncccc1NC(=O)c1cc(C(=O)c2c(Cl)ccc(Cl)c2F)c[nH]1
c = COCCOc1ccc(Cl)c(C(=O)c2c[nH]c(C(=O)Nc3cccnc3)c2)c1F
Query: Task for the reader: rank each entry by its pIC50, from the minimum upward. Please reply with the labels ordered as requested. Many thanks.
Reply: b, c, a
